# System: ACHN
# assay-summary: NCI tumour cell line growth inhibition, 48 h
Activity calls are given as the source filed them. Rule as the data show it: active = GI50 up to about 1.1 µM and inactive = higher.
# output must be one of active, inactive

c1ccc2c3nnc(c2c1)SCCCSc1nnc(c2ccccc12)SCCCS3	inactive
O=[N+]([O-])c1cc2c([N+](=O)[O-])cccc2o1	inactive

Recorded test call requested for `O/N=N/c1ccc([SH2]c2ccc3ccccc3c2)cn1`
inactive

What did the test return for `COc1cc(C)c(O)c(C(=O)O)c1` ?
inactive

Test call, this compound: CC[C@@]1(O)C(=O)OCc2c1cc1n(c2=O)Cc2c-1nc1ccccc1c2/C=N\NC(=O)C(N)CO (stereo partly drawn)
active

For `CC1(C)OC[C@@H]([C@@]2(COC(c3ccccc3)(c3ccccc3)c3ccccc3)CC=CC(=O)O2)O1` , what call appears in the results of this test?
inactive

Outcome? N#CC(NC12CC3CC(CC(C3)C1)C2)c1ccc2c(c1)OCO2 (stereo not drawn)
inactive

Outcome logged for `Cn1c(N)c(Cc2ccc(Cl)cc2)c(=O)[nH]c1=O` in this assay:
inactive

Hello, I am checking results. What call was entered for C=C1C2Oc3ccccc3C1N(c1ccccc1)O2 (stereo not drawn) ?
inactive
